Where do the numbers come from? From patent US20040018971A1.

Target: T1, HLA-DRB1*0802 (human)
T1 construct: Purified HLA molecule; also called DR8w2
Test: inhibition of 125I probe peptide binding to purified HLA-DR, gel filtration
Measurement Type: IC50 (nM)

| Binder | Unit | Experimental Result |
| --- | --- | --- |
| DEAYVMAGVGSPYVS (Synthetic peptide) [Her2/neu.769] | nM | 860 |
